Each recorded value in this set is attributed to the supplement of paper PMC10567573.

B1: CDC25B (parent)
chain: FVDILESDLKDDDAVPPGMESLIS

Variants of: B1
Protocol Summary: protein stability index of a GFP-peptide fusion (GPS, HEK-293T) (PSI 1-6); higher = more stable;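 also: lentivirally expressed fusions sorted by FACS into six bins by GFP to DsRed ratio, PSI derived from sequencing read proportions per bin multiplied by bin number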
Cond: c terminus: a fixed tail appended
Rule: protein stability index of 3 or more gives true (1); anything lower gives false (0).

Residue Codes | Answer Label
DVDILESDLKDDDAVPPGMESLIS [F1D] | true (1)
FVDILESDLKDDDAVPPGMHSLIS [E20H] | false (0)
FVDILESDLKDDDAVPPGMSSLIS [E20S] | false (0)
FVDILESDKKDDDAVPPGMESLIS [L9K] | true (1)
FVDILESDLKDDDAVPPGMESLIV [S24V] | false (0)
FVDILESDLGDDDAVPPGMESLIS [K10G] | true (1)
FVDILESDLKDDLAVPPGMESLIS [D13L] | false (0)
FVDILESDLKRDDAVPPGMESLIS [D11R] | false (0)
FVDILESDLKDDDAVPPGMTSLIS [E20T] | false (0)
FVDILQSDLKDDDAVPPGMESLIS [E6Q] | false (0)
FVEILESDLKDDDAVPPGMESLIS [D3E] | true (1)
RVDILESDLKDDDAVPPGMESLIS [F1R] | true (1)
FVDILESDLKDDDAVIPGMESLIS [P16I] | false (0)
FVDILESWLKDDDAVPPGMESLIS [D8W] | false (0)
FVDILESDLKDDDAWPPGMESLIS [V15W] | false (0)
HVDILESDLKDDDAVPPGMESLIS [F1H] | true (1)
FVDILESDLKDDDAVPPGMESLWS [I23W] | false (0)
FVDILESDLKDDDAAPPGMESLIS [V15A] | false (0)
FVNILESDLKDDDAVPPGMESLIS [D3N] | false (0)
